Items are presented alongside their recorded inhibition at 20 ppm.
System: Pyricularia oryzae
Assay: microbe, parasite or virus in culture
Assay type: cell-based
Conditions: 120 h, read-out: efficacy (inhibition of fungal growth)
measured-endpoint: inhibition at 20 ppm

[[record]]
molecule = "Cc1ccc(C[C@@H]2CON=C(c3nc(C)ncc3Oc3cccc(C4CC4)c3F)N2)c(C)c1 (racemic) [Compound I-016]"
observed_result = "90 to 100%"

[[record]]
molecule = "Cc1ncc(Oc2cccc(Cl)c2)c(C2=NOCC(c3ccc4c(c3)CCC4)N2)n1 (racemic) [Compound I-014]"
observed_result = "90 to 100%"

[[record]]
molecule = "Cc1ncc(Oc2cccc(Cl)c2)c(C2=NOC[C@@H](c3ccc4c(c3)OCCO4)N2)n1 (racemic) [Compound I-031]"
observed_result = "90 to 100%"

[[record]]
molecule = "Cc1ccc(CC2CON=C(c3nc(C)ncc3Oc3cccc(C(F)(F)F)c3)N2)c(C)c1 (racemic) [Compound I-002]"
observed_result = "90 to 100%"

[[record]]
molecule = "C=Cc1cccc(Oc2cnc(C)nc2C2=NOC[C@@H](Cc3ccc(C)cc3C)N2)c1 (racemic) [Compound I-019]"
observed_result = "90 to 100%"

[[record]]
molecule = "Cc1ncc(Oc2cccc(C(F)(F)F)c2)c(C2=NOC[C@@H](Cc3ccc(C(F)F)cc3Cl)N2)n1 (racemic) [Compound I-033]"
observed_result = "70 to 79%"

[[record]]
molecule = "C#Cc1ccc(CC2CON=C(c3nc(C)ncc3Oc3cccc(C(F)(F)F)c3)N2)c(C)c1 (racemic) [Compound I-026]"
observed_result = "90 to 100%"


====

Assay: Measurement of Log P values by HPLC on reversed phase columns (EEC directive 79/831 Annex V.A8)
Assay type: physicochemical
Conditions: LogP
measured-endpoint: chromatographic logP

[[record]]
molecule = "Cc1ncc(Oc2cccc(Cl)c2)c(C(N)=NO)n1"
observed_result = 1.66

[[record]]
molecule = "Cc1ccc(C[C@H](CCl)NC(=O)c2nc(C)ncc2Oc2cccc(C3CC3)c2F)c(C)c1 (racemic)"
observed_result = 4.86

[[record]]
molecule = "Cc1ccc(C[C@@H]2CON=C(c3nc(C)ncc3Oc3cccc(C4CC4)c3F)N2)c(Cl)c1 (racemic)"
observed_result = 4.49

[[record]]
molecule = "Cc1ncc(Oc2cccc(C(F)(F)F)c2)c(C(=O)N[C@@H](CCl)Cc2ccc(Br)cc2C)n1 (racemic)"
observed_result = 4.86

[[record]]
molecule = "Cc1ccc(C[C@H](CCl)NC(=NO)c2nc(C)ncc2Oc2cccc(C(F)(F)F)c2)c(Cl)c1 (racemic)"
observed_result = 4.31

[[record]]
molecule = "Cc1ccc(CC2CON=C(c3nc(C)ncc3Oc3cccc([N+](=O)[O-])c3)N2)c(C)c1 (racemic)"
observed_result = 3.78

[[record]]
molecule = "Cc1ncc(Oc2cccc(C(F)(F)F)c2)c(C(=NO)N[C@@H](CCl)Cc2ccc(SC(F)(F)F)cc2)n1 (racemic)"
observed_result = 4.66

[[record]]
molecule = "Cc1ccc(C[C@H](CCl)NC(=O)c2nc(C)ncc2Oc2cccc(C(F)(F)F)c2)c(Cl)c1 (racemic)"
observed_result = 4.74

[[record]]
molecule = "Cc1ccc(C[C@H](CCl)NC(=O)c2nc(C)ncc2Oc2cccc(C3CC3)c2F)c(Cl)c1 (racemic)"
observed_result = 4.93

[[record]]
molecule = "COC(=N)c1nc(C)ncc1Oc1cccc(Cl)c1"
observed_result = 2.19

[[record]]
molecule = "COc1ccc(C[C@H](CCl)NC(=O)c2nc(C)ncc2Oc2cccc(C(F)(F)F)c2)c(Cl)c1 (racemic)"
observed_result = 4.47

[[record]]
molecule = "Cc1ccc(C[C@H](CCl)NC(=O)c2nc(C)ncc2Oc2cccc(Cl)c2F)c(Cl)c1 (racemic)"
observed_result = 4.7

[[record]]
molecule = "Cc1ccc(C[C@H](N)CC(N)=O)c(C)c1 (racemic)"
observed_result = 0.69

[[record]]
molecule = "CSc1ncc(Br)c(C2=NOC[C@@H](Cc3ccc(C)cc3Cl)N2)n1 (racemic)"
observed_result = 4.08

[[record]]
molecule = "Cc1ccc(C[C@@H]2CON=C(c3nc(C)ncc3Oc3cccc(C4CC4)c3F)N2)c(C)c1 (racemic)"
observed_result = 4.41

